All values here come from patent US20250263376A1.

Please provide measured LDH, Primary melanocytes for the entries that follow.
Test system: primary melanocytes
experimental details: Safety, LDH test in primary melanocytes
Format: cell-based
condition notes: 250 μM, 48 hours, vs Triton X-100
Text: In order to test the safety of the compounds, both normal human cells were used: keratinocytes (HaCaT), fibroblasts (BJ), primary melanocytes that occur in the skin, as well as human cancer cells: the hepatocarcinoma line HepG2 and the neuroblastoma line SH-SY5Y, which are considered a model for the assessment of hepatocytotoxicity and neurocytotoxicity. […] The absorbance at 570 nm, which corresponds to the absorption maximum for the product, is directly proportional to cell viability. […]

Name the value of LDH, Primary melanocytes reported for `O=C(/C=C/c1ccc(Cl)cc1)NCCCCCO` when tested on primary melanocytes.
18.41 percentage of positive control

Name the value of LDH, Primary melanocytes reported for `O=C(/C=C/c1ccccc1)NCCCCCO` when tested on primary melanocytes.
19.45 percentage of positive control

Name the value of LDH, Primary melanocytes reported for `O=C(/C=C/c1ccc(Cl)cc1)NCCCO` when tested on primary melanocytes.
18.10 percentage of positive control

Name the value of LDH, Primary melanocytes reported for `O=C(/C=C/c1ccc(Cl)cc1)NCCO` when tested on primary melanocytes.
15.01 percentage of positive control

Name the value of LDH, Primary melanocytes reported for `Cc1ccc(/C=C/C(=O)NCCCCCO)cc1` when tested on primary melanocytes.
14.94 percentage of positive control

----------
Please provide measured Increase in the number of yellow wells compared to the reference level, TA98 for the entries that follow.
Tested on: S. typhimurium TA98
experimental details: Ames microplate test, TA98
Assay type: cell-based, Salmonella typhimurium
condition notes: 2.0 mM, + S9
Provide a numeric answer; units are not to be included.

Look up and state reported Increase in the number of yellow wells compared to the reference level, TA98 for `O=C(/C=C/c1ccccc1)NCCCCCCO`
0.63

Look up and state reported Increase in the number of yellow wells compared to the reference level, TA98 for `O=C(/C=C/c1ccccc1)NCCCCCO`
1.00

Look up and state reported Increase in the number of yellow wells compared to the reference level, TA98 for `O=C(/C=C/c1ccc(Cl)cc1)NCCCCCO`
1.50

Look up and state reported Increase in the number of yellow wells compared to the reference level, TA98 for CCC(O)CNC(=O)/C=C/c1ccc(Cl)cc1 (stereo not shown)
1.04

----------
Tested on: B16-F10 murine melanoma cell line
experimental details: Cytotoxicity (MTT) in B16-F10 murine melanoma cells
Type: cell-based
condition notes: 150 μM, 48 h
Method: Cytotoxicity Assessment in the B16-F10 Murine Melanoma Cell Line (ATTC CRL-6745)—Preliminary Safety Assessment for Subsequent Studies In order to determine safe doses of compounds for testing the inhibition of melanogenesis in a murine melanoma cell line, cytotoxicity tests were performed. Cytotoxicity was determined by the colorimetric method using MTT ([3-(4,5-dimethyl-2-thiazolyl)-2,5-diphenyl-2H-tetrazolium bromide, Sigma M5655). […]
Please provide measured Cytotoxicity study in B16F10 cells, % viability for the entries that follow.
Your answer should be a plain number; it is taken to be in %.

Name the value of Cytotoxicity study in B16F10 cells, % viability reported for O=C(/C=C/c1ccc(Cl)cc1Cl)N1CCC(O)CC1 [H-310/20] when tested on B16-F10 murine melanoma cell line.
89.5

Name the value of Cytotoxicity study in B16F10 cells, % viability reported for Cc1ccc(/C=C/C(=O)NCCCO)cc1 [H-410/21] when tested on B16-F10 murine melanoma cell line.
88.8

Name the value of Cytotoxicity study in B16F10 cells, % viability reported for CCC(O)CNC(=O)/C=C/c1ccc(C)cc1 (stereo not shown) [Compound A-63] when tested on B16-F10 murine melanoma cell line.
90.2

Name the value of Cytotoxicity study in B16F10 cells, % viability reported for O=C(/C=C/c1ccc(Cl)cc1)NCCCCCO [Compound A-111] when tested on B16-F10 murine melanoma cell line.
88.2

----------
System: B16-F10 murine melanoma cell line
experimental details: Cytotoxicity (MTT) in B16-F10 murine melanoma cells
Assay type: cell-based
condition notes: 200 μM, 48 h
Method: Cytotoxicity Assessment in the B16-F10 Murine Melanoma Cell Line (ATTC CRL-6745)—Preliminary Safety Assessment for Subsequent Studies In order to determine safe doses of compounds for testing the inhibition of melanogenesis in a murine melanoma cell line, cytotoxicity tests were performed. Cytotoxicity was determined by the colorimetric method using MTT ([3-(4,5-dimethyl-2-thiazolyl)-2,5-diphenyl-2H-tetrazolium bromide, Sigma M5655). […]
Please provide measured Cytotoxicity study in B16F10 cells, % viability for the entries that follow.
Your answer should be a plain number; it is taken to be in %.

Look up and state reported Cytotoxicity study in B16F10 cells, % viability for `O=C(/C=C/c1ccccc1)NCCO`
79.8

Look up and state reported Cytotoxicity study in B16F10 cells, % viability for CCC(O)CNC(=O)/C=C/c1ccc(Cl)cc1 (stereo not drawn)
87.8

Look up and state reported Cytotoxicity study in B16F10 cells, % viability for `Cc1ccc(/C=C/C(=O)NCCCO)cc1`
90.7

Look up and state reported Cytotoxicity study in B16F10 cells, % viability for `O=C(/C=C/c1ccc(Cl)cc1)NCCO`
80.2

Look up and state reported Cytotoxicity study in B16F10 cells, % viability for `Cc1ccc(/C=C/C(=O)NCCCCCO)cc1`
90.3

Look up and state reported Cytotoxicity study in B16F10 cells, % viability for CC(C)C(CO)NC(=O)/C=C/c1ccc(Cl)cc1 (stereo not drawn)
88.1

----------
Please provide measured inhibition at 500 µM for the entries that follow.
system tested: tyrosinase from mushroom (Agaricus bisporus)
Sequence (C7FF04 2-392): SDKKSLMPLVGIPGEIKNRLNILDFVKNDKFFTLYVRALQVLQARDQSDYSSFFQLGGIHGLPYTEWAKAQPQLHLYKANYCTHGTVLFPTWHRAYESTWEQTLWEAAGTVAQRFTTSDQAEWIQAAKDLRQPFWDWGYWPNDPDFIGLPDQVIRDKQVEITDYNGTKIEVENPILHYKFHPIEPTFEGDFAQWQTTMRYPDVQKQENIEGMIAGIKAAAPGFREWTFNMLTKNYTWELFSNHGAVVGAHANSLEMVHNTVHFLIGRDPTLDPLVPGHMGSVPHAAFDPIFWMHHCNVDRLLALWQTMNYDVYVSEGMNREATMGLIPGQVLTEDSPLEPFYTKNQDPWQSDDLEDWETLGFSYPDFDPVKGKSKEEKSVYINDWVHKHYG
Sequence (G1K3P4 entry or part of it, further chain): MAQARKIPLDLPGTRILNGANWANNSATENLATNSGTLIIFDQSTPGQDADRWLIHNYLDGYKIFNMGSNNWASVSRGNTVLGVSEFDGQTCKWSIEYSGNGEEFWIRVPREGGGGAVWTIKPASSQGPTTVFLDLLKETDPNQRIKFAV
experimental details: Inhibition of commercial mushroom tyrosinase, substrate L-DOPA
Assay type: biochemical
condition notes: 500 μM; read-out: Tyrosinase inhibition with L-DOPA [%]
Your answer should be a plain number; it is taken to be in %.

Look up and state reported inhibition at 500 µM for CC(CO)NC(=O)/C=C/c1ccc(Cl)cc1 (stereo not shown)
53

Look up and state reported inhibition at 500 µM for `O=C(/C=C/c1ccccc1)NCCCCO`
34.5

Look up and state reported inhibition at 500 µM for CC(C)C(CO)NC(=O)/C=C/c1ccc(Cl)cc1 (stereo not shown)
41.2

Look up and state reported inhibition at 500 µM for `O=C(/C=C/c1ccc(Cl)cc1)NCCCO`
55.3

----------
System: fibroblasts (BJ)
experimental details: Safety, MTT test in fibroblasts
Assay type: cell-based
condition notes: 150 μM, 48 hours
Please provide measured MTT, Fibroblasts (BJ) for the entries that follow.

Look up and state reported MTT, Fibroblasts (BJ) for `O=C(/C=C/c1ccccc1)NCCCCCO`
91.68 ± 3.64 % of solvent control

Look up and state reported MTT, Fibroblasts (BJ) for `O=C(/C=C/c1ccc(Cl)cc1)NCCCCCO`
100.94 ± 3.37 % of solvent control

Look up and state reported MTT, Fibroblasts (BJ) for `O=C(/C=C/c1ccc(Cl)cc1)NCCO`
100.76 ± 3.34 % of solvent control

----------
System: B16-F10 murine melanoma cell line
experimental details: Cytotoxicity (MTT) in B16-F10 murine melanoma cells
Type: cell-based
condition notes: 250 μM, 48 h
readout type: Cytotoxicity study in B16F10 cells, % viability (%)
Your answer should be a plain number; it is taken to be in %.

Look up and state reported Cytotoxicity study in B16F10 cells, % viability for `O=C(/C=C/c1ccc(Cl)cc1)NCCCCCO`
89.7

Look up and state reported Cytotoxicity study in B16F10 cells, % viability for `O=C(/C=C/c1ccc(Cl)cc1Cl)NCCCCCO`
88.5

Look up and state reported Cytotoxicity study in B16F10 cells, % viability for CCC(O)CNC(=O)/C=C/c1ccc(C)cc1 (stereo not drawn)
87.4
